Experiment: Thermodynamic (Equilibrium) solubility in selected buffer
Format: physicochemical
Conditions: acetate buffer 50 mM, aqueous buffer, thermodynamic from solid; pH 5.5; Table 25; read-out: Solubility (μg/mL) pH 5.5
Recorded solubility for the following compounds

STRUCTURE_NOTATION | solubility [µg/mL]
Cn1nc(-c2nnc([C@H]3CC[C@H](NC(=O)COc4ccc(Cl)c(F)c4)CN3)o2)cc1Cl | 4
Cc1cc(OCC(=O)N[C@H]2CC[C@H](c3nnc(OCCOC(F)(F)F)o3)NC2)ccc1Cl | 113
O=C(COc1ccc(Cl)c(F)c1)N[C@H]1CC[C@H](c2nnc(N3CC(C(F)(F)F)C3)o2)NC1 | 294
O=C(COc1ccc(Cl)c(Cl)c1)N[C@H]1CC[C@H](c2nnc(OCCOC(F)(F)F)o2)NC1 | 9

====

Experiment: Thermodynamic (Equilibrium) solubility in selected buffer
Type: physicochemical
Details: acetate buffer 50 mM, aqueous buffer, thermodynamic from solid; pH 5.5; Table 25; read-out: Solubility (μg/mL) pH 5.5
So basically, the class depends on measured solubility, and the ranges are Low (below 80 µg/mL), Medium (80 µg/mL to below 200 µg/mL), High (200 µg/mL or more)

COMPOUND | DISCRETE_LABEL
O=C(COc1ccc(Cl)c(F)c1)N[C@H]1CC[C@H](c2nnc(N3CC(OC4CC4)C3)o2)NC1 [Example 95] | High
O=C(COc1ccc(Cl)c(F)c1)N[C@H]1CC[C@H](c2noc([C@H]3C[C@@H](OC(F)(F)F)C3)n2)NC1 [Example 98] | Low
O=C(COc1ccc(Cl)c(F)c1)N[C@H]1CC[C@H](c2nnc(OCCOC(F)(F)F)o2)NC1 [Example 77] | Medium
O=C(CO[C@H]1C[C@@H](OC(F)(F)F)C1)N[C@@H]1CC[C@@H](c2nnc(-c3ccc(Cl)cc3)o2)NC1 [Example 5] | High
O=C(COc1ccc(Cl)c(C(F)F)c1)N[C@H]1CC[C@H](c2nnc(OCCOC(F)(F)F)o2)NC1 [Example 11] | Low
O=C(COc1ccc(Cl)c(F)c1)N[C@H]1CC[C@H](c2nnc(N3CC[C@H](OC(F)(F)F)C3)o2)NC1 (single isomer, unassigned) [Example 110] | High
O=C(COc1ccc(Cl)c(F)c1)N[C@H]1CC[C@H](c2nnc(OC3CCC(F)(F)C3)o2)NC1 (stereo partly shown) [Example 68] | Medium
O=C(COc1ccc(Cl)c(F)c1)N[C@H]1CC[C@H](c2nnc(OCCOC(F)F)o2)NC1 [Example 75] | Low
O=C(COc1ccc(Cl)c(F)c1)N[C@H]1CC[C@H](c2nnc(COC(F)(F)F)o2)NC1 [Example 61] | Medium
Cc1ccc(OCC(=O)N[C@H]2CC[C@H](c3nnc(OCCOC(F)(F)F)o3)NC2)cc1C [Example 13] | High
O=C(COc1ccc(Cl)c(Cl)c1)N[C@H]1CC[C@H](c2nnc([C@H]3C[C@@H](OC(F)F)C3)o2)NC1 [Example 60] | Low
O=C(COc1ccc(C(F)(F)F)nc1)N[C@H]1CC[C@H](c2nnc(OCCOC(F)(F)F)o2)NC1 [Example 14] | High
CC(F)(F)CCCOc1nnc([C@H]2CC[C@H](NC(=O)COc3ccc(Cl)c(F)c3)CN2)o1 [Example 84] | Medium
O=C(COc1ccc(Cl)c(F)c1)N[C@H]1CC[C@H](c2nnc(C3CN(CC(F)(F)F)C3)o2)NC1 [Example 57] | High
O=C(COc1ccc(Cl)c(F)c1)N[C@H]1CC[C@H](c2nnc(-c3ccc(C(F)(F)F)nc3)o2)NC1 [Example 52] | Low
O=C(COc1ccc(Cl)c(F)c1)N[C@H]1CC[C@H](c2nnc(N3CC[C@@H](OC(F)(F)F)C3)o2)NC1 (single isomer, unassigned) [Example 111] | Low
Cc1ccc(-c2nnc([C@H]3CC[C@H](NC(=O)COc4ccc(Cl)c(F)c4)CN3)o2)cn1 [Example 34] | High
O=C(COc1ccc(C(F)(F)F)cc1)N[C@H]1CC[C@H](c2nnc(OCCOC(F)(F)F)o2)NC1 [Example 112] | Medium
